Below are GI50 values recorded for Prostate cancer subpanel.
Give bare numbers, in µM.

Could you tell me GI50 for each of these molecules? They are listed below.
1. C=C(C)[C@@H]1CC[C@]2(C(=O)N[C@H](CO)Cc3ccccc3)CC[C@]3(C)[C@H](CC[C@@H]4[C@@]5(C)CCCNC(C)(C)[C@@H]5CC[C@]43C)[C@@H]12 [Compound 11]
2. CC1(C)CC[C@]23CC[C@]4(C)[C@H](CC[C@@H]5[C@@]6(C)CCCNC(C)(C)[C@@H]6CC[C@]54C)[C@H]2[C@H]1OC3 [Compound 7, Azepanoallobetulin]
3. C=C(C)[C@@H]1CC[C@]2(COS(=O)(=O)c3ccc(C)cc3)CC[C@]3(C)[C@@H](CC[C@@H]4[C@@]5(C)CCCNC(C)(C)[C@@H]5CC[C@]43C)[C@@H]12 [Compound 12]

**A:**
1: 1.32; 2: 1.67; 3: 1.67

* * *

Tested on: A375 (malignant melanoma)
Test: SRB cytotoxicity assay, 72 h
Type: cell-based, human
Conditions: Homo sapiens, A-375, 72 h, A375, 72 h, cut-off 30 µM; read-out: EC50
Provide the reported EC50 of each item.
One number for each entry, in µM.

Examples from the recorded data:
molecule=C=C(C)[C@@H]1CC[C@]2(C)[C@H](C=CC3=C4C[C@@](C)(CO)CC[C@]4(C)CC[C@]32C)[C@@]1(C)CCCN assayedsystem="A375 (malignant melanoma)" unitstring=µM assayresult=3.13
molecule=CC1(C)NCCC[C@]2(C)[C@H]3C=CC4=C5C[C@@](C)(CO)CC[C@]5(C)CC[C@@]4(C)[C@]3(C)CC[C@@H]12 assayedsystem="A375 (malignant melanoma)" unitstring=µM assayresult=6.65
molecule=C[C@H]1[C@H](C)CC[C@]2(CO)CC[C@]3(C)C(=CC[C@@H]4[C@@]5(C)CCCNC(C)(C)[C@@H]5CC[C@]43C)[C@H]12 assayedsystem="A375 (malignant melanoma)" unitstring=µM assayresult=2.4
molecule="CC1(C)CC[C@]2(C(=O)NC(CO)Cc3ccccc3)CC[C@]3(C)C(=CC[C@@H]4[C@@]5(C)CCCNC(C)(C)[C@@H]5CC[C@]43C)[C@@H]2C1 (some centres unmarked)" assayedsystem="A375 (malignant melanoma)" unitstring=µM assayresult=3.08

Kindly consider the entry below.
**Q:** // lookup EC50 for C=C(C)[C@@H]1CC[C@]2(C)[C@H](CC=C3[C@@H]4[C@@H](C)[C@H](C)CC[C@]4(CO)CC[C@]32C)[C@@]1(C)CCCN
**A:** 2.97

* * *

Tested on: SF-295 (CNS cancer)
Experiment: NCI-60 screen (SRB, 48 h)
Settings: Homo sapiens, SF-295
measuredEndpoint: GI50 (nM)
Give bare numbers, in nM.

compound="CC1(C)NCCC[C@]2(C)[C@H]3C=CC4=C5C[C@@](C)(CO)CC[C@]5(C)CC[C@@]4(C)[C@]3(C)CC[C@@H]12 [Compound 6, azepano-glycyrrhetol-diene]" assayedsystem="SF-295 (CNS cancer)" measuredendpoint=GI50 assayresult=2000
compound="CC(C)=C1CCC=C2CC[C@]3(C)[C@H](CC[C@@H]4[C@@]5(C)CCCNC(C)(C)[C@@H]5CC[C@]43C)[C@H]21 [Compound 9]" assayedsystem="SF-295 (CNS cancer)" measuredendpoint=GI50 assayresult=1870
compound="C=C(C)[C@@H]1CCC=C2CC[C@]3(C)[C@H](CC[C@@H]4[C@@]5(C)CCCNC(C)(C)[C@@H]5CC[C@]43C)[C@H]21 [Compound 8]" assayedsystem="SF-295 (CNS cancer)" measuredendpoint=GI50 assayresult=1810
compound="CC1(C)CC[C@]2(CO)CC[C@]3(C)C(=CC[C@@H]4[C@@]5(C)CCCNC(C)(C)[C@@H]5CC[C@]43C)[C@@H]2C1 [Compound 3, azepanoerythrodiol]" assayedsystem="SF-295 (CNS cancer)" measuredendpoint=GI50 assayresult=1770

Kindly consider the entry below.
**Q:** Item: C[C@H]1[C@H](C)CC[C@]2(C(=O)Nc3ccc4ncccc4c3)CC[C@]3(C)C(=CC[C@@H]4[C@@]5(C)CCCNC(C)(C)[C@@H]5CC[C@]43C)[C@H]12 [Compound 14] Test system: SF-295 (CNS cancer) Read-out: GI50 Value: ?
**A:** 1650
